Hey, just so you know, these numbers are from paper PMC3847553.

- test target: mouse OX1R (Mus musculus, UniProt P58307)
- Construct: expressed in transfected cells; host or cells: HEK; cells from GNF, San Diego
- Sequence (P58307 1-416): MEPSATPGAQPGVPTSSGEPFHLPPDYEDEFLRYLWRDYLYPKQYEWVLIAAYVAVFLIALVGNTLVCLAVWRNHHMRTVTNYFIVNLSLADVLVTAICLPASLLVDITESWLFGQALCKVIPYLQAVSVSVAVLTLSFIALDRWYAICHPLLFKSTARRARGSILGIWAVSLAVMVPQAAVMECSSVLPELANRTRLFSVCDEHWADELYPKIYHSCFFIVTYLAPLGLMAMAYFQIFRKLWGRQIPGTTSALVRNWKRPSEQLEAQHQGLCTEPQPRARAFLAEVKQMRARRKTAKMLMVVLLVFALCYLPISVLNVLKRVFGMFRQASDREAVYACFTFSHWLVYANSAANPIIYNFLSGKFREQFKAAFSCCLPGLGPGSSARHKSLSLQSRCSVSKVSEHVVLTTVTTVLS
- protocol notes: FLIPR orexin A-stimulated calcium accumulation, mouse OX1R
- Assay type: cell-based
- measurement context: pKi, HEK cells, antagonist incubation 4 h
measured quantity: Ki (nM)
Report as a plain number; the unit nM is understood.

### Prompt Name the reported Ki value associated with the molecule Cc1ccc(-n2nccn2)c(C(=O)N2CCN(c3nc4cc(Cl)ccc4o3)CC[C@H]2C)c1 [Suvorexant]
### Response 1.02

### Prompt Subsequent entry: CNC(=O)[C@@H](c1ccccc1)N1CCc2cc(OC)c(OC)cc2[C@@H]1CCc1ccc(C(F)(F)F)cc1 [Almorexant]
### Response 38.9
